# system name: recombinant HA (rHA), subtype H5 (A/Vietnam/1203/04(H5N1)) (influenza A virus)
# experimental protocol: ELISA, coated rHA
metric: EC50 (µg/mL)
Answer with a number only, understood to be in µg/mL.

Example binders with recorded EC50:
- binder: "Antibody 10 (antibody, V domains shown) VH: QVQLQQSGPGLVKPSQTLSLTCAISGDSVSSNSATWNWIRQSPSRGLEWLGRTYYRSKWYNDYADFLKRRITINPDTSNNEVSLRLTSVTPDDTALYYCARGGHITVFGVNIDAFDVWGQGTMVTVSS VL: DIQMTQSPSSLSASVGDRITISCRTSQSLRSYLHWYQQKPGKAPKLLIYASSTLQSGVPSRFSGSGSGTDFTLTISNLQPEDFATYYCQLSRTFGQGTKVEIK"
  metric: "EC50"
  recorded number: 0.058
- binder: "Antibody 8 (antibody, V domains shown) VH: QVQLQQSGPGLVKPSQTLSLTCVISGDTVSSNRATWNWMRQSPLRGLEWLGRTYYRSKWYNDYAVSVKSRVVINPDTSKNQVSLQLNTVTPDDSGVYFCARGGHITVFGVNIDAFDIWGLGTKVTVSS VL: DIQMTQSPSSLSASVGDRVTISCRASQRLNSYLHWYQQTPGQAPKLLIYATSTLQSGVSPRFSGSGSGTDFTLTISSLQPEDVATYYCQLSRTFGHGTKVEIK"
  metric: "EC50"
  recorded number: 0.044
- binder: "Antibody 5 (antibody, V domains shown) VH: QVQLQQSGPGLVKPSQTLSLTCAISGDRVSSNSAVWNWIRQSPSRGLEWLGRTYYRSKWYYDYAESVKSRIVIDPDTSKNQVSLQLNSVTPEDSAIYYCARGGHITVFGLNIDAYDIWGQGAMVTVSS VL: DIQMTQSPSSLSASVGDRVTISCRAQSLSSYLHWYQQKPGQPPKLLIYAATTLQSGVPSRFSGSGSGTDFTLTISTFQAEDVATYYCQQSRTFGQGTKVEIK"
  metric: "EC50"
  recorded number: 0.041

# ---- query binder ----
In plain terms, Antibody 6 (antibody, V domains shown) VH: QVQLQQSGPGLVKPSQTLSLTCAISGDRVSSNSAVWNWIRQSPSRGLEWLGRTYYRSKWYYDYAESVKSRIVIDPDTSKNQVSLQLNSVTPEDSAIYYCARGGHITEFGLNIDAYDIWGQGAMVTVSS VL: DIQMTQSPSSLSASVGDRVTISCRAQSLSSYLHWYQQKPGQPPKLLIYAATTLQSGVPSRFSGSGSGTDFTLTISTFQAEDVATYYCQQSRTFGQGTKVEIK has a documented EC50 of 0.256
